assay: Phase I study CXR1002-001: plasma pharmacokinetics (LC-MS/MS); format: in vivo, human; conditions: human, plasma, oral, 50 mg, Patient 004 Dose 50 mg; 0 hr
property: concentration at 0 hr
Enter the number, and then the unit.

Problem: I'd like to know its concentration at 0 hr. The compound in question is O=C(O)C(F)(F)C(F)(F)C(F)(F)C(F)(F)C(F)(F)C(F)(F)C(F)(F)F
Result: 100 nM

###

experiment: Phase I study CXR1002-001: plasma pharmacokinetics (LC-MS/MS); format: in vivo, human; conditions: human, plasma, oral, 600 mg, Patient 024, 600 mg, person, plasma, 4 hr; read-out: Concentration
property: concentration at 4 h (µM)
Lab book: enter the figure in µM, no units written.

Problem: I'd like to know its concentration at 4 h. The molecule in question is O=C(O)C(F)(F)C(F)(F)C(F)(F)C(F)(F)C(F)(F)C(F)(F)C(F)(F)F [CXR1002]
Result: 283

Data origin: patent US20130029928A1
